biological target: Endoplasmic reticulum aminopeptidase 1 (Homo sapiens, UniProt Q9NZ08); assay: Inhibition of human recombinant ERAP1 expressed in baculovirus infected Sf9 cells using omniMMP fluorogenic substrate incubated for 5 to 10 mins by fluorescence spectrophotometry analysis
Sequence (Q9NZ08 whole entry): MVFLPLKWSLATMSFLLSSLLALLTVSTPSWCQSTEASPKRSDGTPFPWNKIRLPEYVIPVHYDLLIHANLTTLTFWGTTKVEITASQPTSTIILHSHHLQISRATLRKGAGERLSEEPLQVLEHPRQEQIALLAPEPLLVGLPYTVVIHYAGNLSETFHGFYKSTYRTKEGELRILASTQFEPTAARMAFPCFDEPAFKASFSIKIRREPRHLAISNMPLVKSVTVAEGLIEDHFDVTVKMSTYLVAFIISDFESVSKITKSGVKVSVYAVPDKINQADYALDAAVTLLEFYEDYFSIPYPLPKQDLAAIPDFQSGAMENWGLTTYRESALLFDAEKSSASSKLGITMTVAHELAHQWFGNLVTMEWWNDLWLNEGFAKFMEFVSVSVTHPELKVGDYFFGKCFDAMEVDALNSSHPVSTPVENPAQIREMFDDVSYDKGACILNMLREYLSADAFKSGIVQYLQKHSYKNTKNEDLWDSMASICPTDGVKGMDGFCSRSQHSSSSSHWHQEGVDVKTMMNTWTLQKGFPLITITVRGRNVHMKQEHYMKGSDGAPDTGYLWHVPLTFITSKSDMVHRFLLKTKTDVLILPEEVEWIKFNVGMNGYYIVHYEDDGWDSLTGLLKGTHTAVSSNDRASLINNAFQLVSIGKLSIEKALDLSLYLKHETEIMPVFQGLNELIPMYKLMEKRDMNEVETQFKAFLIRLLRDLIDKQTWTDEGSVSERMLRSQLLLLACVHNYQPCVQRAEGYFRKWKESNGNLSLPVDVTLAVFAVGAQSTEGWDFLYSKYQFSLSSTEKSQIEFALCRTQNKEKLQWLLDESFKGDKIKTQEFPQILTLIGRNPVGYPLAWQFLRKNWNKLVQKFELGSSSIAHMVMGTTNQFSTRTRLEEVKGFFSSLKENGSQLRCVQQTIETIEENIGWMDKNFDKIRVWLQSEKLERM
Kindly apply the following: met if IC50 is less than 20 µM, not met in every other case.

Find out if reported IC50 for "CCCC[C@H](N)C(=O)Nc1ccc(C(=O)N[C@@H](Cc2c[nH]c3ccccc23)C(=O)OCc2ccccc2)cc1" is less than 20 µM
not met

Find out if reported IC50 for "CCCC[C@H](N)C(=O)NNc1ccc(C(=O)N[C@@H](Cc2c[nH]c3ccccc23)C(=O)OCc2ccccc2)cc1" is less than 20 µM
met

Find out if reported IC50 for "CCCC[C@H](N)C(=O)Nc1cccc(C(=O)N[C@@H](Cc2c[nH]c3ccccc23)C(=O)OCc2ccccc2)c1" is less than 20 µM
not met

Find out if reported IC50 for "CC(C)[C@H](NC(=O)Cn1cccc(O)c1=O)C(=O)OCc1ccccc1" is less than 20 µM
not met

Find out if reported IC50 for "N[C@@H](CCc1ccccc1)C(=O)NNc1ccc(C(=O)N[C@@H](Cc2c[nH]c3ccccc23)C(=O)OCc2ccccc2)cc1" is less than 20 µM
met

Find out if reported IC50 for "O=C(Cn1cccc(O)c1=O)NCCc1ccc(-c2ccccc2)cc1" is less than 20 µM
met

Find out if reported IC50 for "COc1cccn(CC(=O)NCCc2ccc(-c3ccccc3)cc2)c1=S" is less than 20 µM
not met

====

Exercise: state measured pKi for each of the molecules provided.
target: Endoplasmic reticulum aminopeptidase 1 (Homo sapiens, UniProt Q9NZ08); assay: Competitive inhibition of human recombinant ERAP1 expressed in baculovirus infected sf9 cells using L-AMC as substrate incubated for 5 to 10 mins by Michaelis-Menten analysis
Entry type: numeric. Quantity: pKi, the -log10 of concentration in molar units.

Using the record for "CCCC[C@H](N)C(=O)NNc1ccc(C(=O)N[C@@H](Cc2c[nH]c3ccccc23)C(=O)OCc2ccccc2)cc1" , report its pKi.
4.96

Using the record for "CC(C)[C@H](NC(=O)Cn1cccc(O)c1=O)C(=O)OCc1ccccc1" , report its pKi.
4.36

Using the record for "COc1cccn(CC(=O)NCCc2ccc(-c3ccccc3)cc2)c1=S" , report its pKi.
4.63

Using the record for "O=C(Cn1cccc(O)c1=O)N[C@@H](Cc1c[nH]c2ccccc12)C(=O)OCc1ccccc1" , report its pKi.
4.73

Using the record for "N[C@@H](CCc1ccccc1)C(=O)NNc1ccc(C(=O)N[C@@H](Cc2c[nH]c3ccccc23)C(=O)OCc2ccccc2)cc1" , report its pKi.
5.33

Using the record for "O=C(Cn1cccc(O)c1=O)NCCc1ccc(-c2ccccc2)cc1" , report its pKi.
4.76

====

target: Endoplasmic reticulum aminopeptidase 2 (Homo sapiens); test: Inhibition of human recombinant ERAP2 expressed in baculovirus infected Sf9 cells using omniMMP fluorogenic substrate incubated for 5 to 10 mins by fluorescence spectrophotometry analysis
Exercise: state measured IC50 for each of the molecules provided.
Your answer is read as µM, so omit the unit and give the number.

Provide value of IC50 for this record tested with Endoplasmic reticulum aminopeptidase 2 (Homo sapiens): "CCCC[C@H](N)C(=O)NNc1cccc(C(=O)N[C@@H](Cc2c[nH]c3ccccc23)C(=O)OCc2ccccc2)c1"
7.9

Provide value of IC50 for this record tested with Endoplasmic reticulum aminopeptidase 2 (Homo sapiens): "O=C(Cn1cccc(O)c1=O)N[C@@H](Cc1c[nH]c2ccccc12)C(=O)OCc1ccccc1"
10.3

Provide value of IC50 for this record tested with Endoplasmic reticulum aminopeptidase 2 (Homo sapiens): "O=C(Cn1cccc(O)c1=O)NCCc1ccc(-c2ccccc2)cc1"
50.3

Provide value of IC50 for this record tested with Endoplasmic reticulum aminopeptidase 2 (Homo sapiens): "CCCC[C@H](N)C(=O)Nc1ccc(C(=O)N[C@@H](Cc2c[nH]c3ccccc23)C(=O)OCc2ccccc2)cc1"
8.8

Provide value of IC50 for this record tested with Endoplasmic reticulum aminopeptidase 2 (Homo sapiens): "CC(C)[C@H](NC(=O)Cn1cccc(O)c1=O)C(=O)OCc1ccccc1"
8.9

Provide value of IC50 for this record tested with Endoplasmic reticulum aminopeptidase 2 (Homo sapiens): "O=C(Cn1cccc(O)c1=O)NCCc1c[nH]c2ccccc12"
31.3

Provide value of IC50 for this record tested with Endoplasmic reticulum aminopeptidase 2 (Homo sapiens): "COc1cccn(CC(=O)NCCc2ccc(-c3ccccc3)cc2)c1=S"
31.9

Provide value of IC50 for this record tested with Endoplasmic reticulum aminopeptidase 2 (Homo sapiens): "CCCC[C@H](N)C(=O)NNc1ccc(C(=O)N[C@@H](Cc2c[nH]c3ccccc23)C(=O)OCc2ccccc2)cc1"
2.2

====

Exercise: state measured Ki for each of the compounds provided.
target: Endoplasmic reticulum aminopeptidase 2 (Homo sapiens, UniProt Q6P179); assay: Competitive inhibition of human recombinant ERAP2 expressed in baculovirus infected sf9 cells using R-AMC as substrate incubated for 5 to 10 mins by Michaelis-Menten analysis
Sequence (Q6P179 whole entry): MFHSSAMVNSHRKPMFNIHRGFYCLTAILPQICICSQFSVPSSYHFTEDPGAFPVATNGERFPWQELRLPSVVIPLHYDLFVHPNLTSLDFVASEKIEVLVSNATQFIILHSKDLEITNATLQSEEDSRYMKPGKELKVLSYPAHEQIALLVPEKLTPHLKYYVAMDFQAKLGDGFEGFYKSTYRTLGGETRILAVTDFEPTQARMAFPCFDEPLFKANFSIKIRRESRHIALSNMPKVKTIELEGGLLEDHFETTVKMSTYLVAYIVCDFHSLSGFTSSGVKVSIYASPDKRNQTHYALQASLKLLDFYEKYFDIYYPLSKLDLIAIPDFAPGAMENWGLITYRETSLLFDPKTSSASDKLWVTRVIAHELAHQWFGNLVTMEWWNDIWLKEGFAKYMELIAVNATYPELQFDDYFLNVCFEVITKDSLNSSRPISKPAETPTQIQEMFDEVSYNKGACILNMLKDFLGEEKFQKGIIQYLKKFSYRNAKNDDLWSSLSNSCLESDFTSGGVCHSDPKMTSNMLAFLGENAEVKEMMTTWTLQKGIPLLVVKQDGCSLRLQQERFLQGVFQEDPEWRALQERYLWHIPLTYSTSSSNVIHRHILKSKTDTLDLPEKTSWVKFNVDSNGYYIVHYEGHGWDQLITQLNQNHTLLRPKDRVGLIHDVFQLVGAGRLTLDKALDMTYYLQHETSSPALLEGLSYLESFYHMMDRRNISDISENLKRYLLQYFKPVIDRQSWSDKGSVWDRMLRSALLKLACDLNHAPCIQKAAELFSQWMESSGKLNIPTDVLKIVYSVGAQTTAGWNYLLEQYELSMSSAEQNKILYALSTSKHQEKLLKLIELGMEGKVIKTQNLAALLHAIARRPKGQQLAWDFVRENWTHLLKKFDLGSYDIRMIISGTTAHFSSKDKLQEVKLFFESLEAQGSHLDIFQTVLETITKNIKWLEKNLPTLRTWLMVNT
Your answer is read as µM, so omit the unit and give the number.

Using the record for "CCCC[C@H](N)C(=O)Nc1ccc(C(=O)N[C@@H](Cc2c[nH]c3ccccc23)C(=O)OCc2ccccc2)cc1" , report its Ki.
4.8

Using the record for "CCCC[C@H](N)C(=O)NNc1cccc(C(=O)N[C@@H](Cc2c[nH]c3ccccc23)C(=O)OCc2ccccc2)c1" , report its Ki.
4.3

Using the record for "O=C(Cn1cccc(O)c1=O)NCCc1ccc(-c2ccccc2)cc1" , report its Ki.
27.4

Using the record for "CCCC[C@H](N)C(=O)NNc1ccc(C(=O)N[C@@H](Cc2c[nH]c3ccccc23)C(=O)OCc2ccccc2)cc1" , report its Ki.
1.2

Using the record for "CC(C)[C@H](NC(=O)Cn1cccc(O)c1=O)C(=O)OCc1ccccc1" , report its Ki.
4.9

Using the record for "O=C(Cn1cccc(O)c1=O)NCCc1c[nH]c2ccccc12" , report its Ki.
17.7

Using the record for "COc1cccn(CC(=O)NCCc2ccc(-c3ccccc3)cc2)c1=S" , report its Ki.
17.4

Using the record for "O=C(Cn1cccc(O)c1=O)N[C@@H](Cc1c[nH]c2ccccc12)C(=O)OCc1ccccc1" , report its Ki.
0.7

====

molecular target: Endoplasmic reticulum aminopeptidase 1 (Homo sapiens); assay: Inhibition of human recombinant ERAP1 expressed in baculovirus infected Sf9 cells using omniMMP fluorogenic substrate incubated for 5 to 10 mins by fluorescence spectrophotometry analysis
pIC50: −log10 of the molar value.
READOUT KIND: pIC50

Provide value of pIC50 for this record tested with Endoplasmic reticulum aminopeptidase 1 (Homo sapiens): "O=C(Cn1cccc(O)c1=O)N[C@@H](Cc1c[nH]c2ccccc12)C(=O)OCc1ccccc1"
4.69

Provide value of pIC50 for this record tested with Endoplasmic reticulum aminopeptidase 1 (Homo sapiens): "CCCC[C@H](N)C(=O)Nc1cc(C(=O)N[C@@H](Cc2c[nH]c3ccccc23)C(=O)OCc2ccccc2)ccn1"
< 5.00

Provide value of pIC50 for this record tested with Endoplasmic reticulum aminopeptidase 1 (Homo sapiens): "CCCC[C@H](N)C(=O)NNc1cccc(C(=O)N[C@@H](Cc2c[nH]c3ccccc23)C(=O)OCc2ccccc2)c1"
< 5.00

====

biological target: Endoplasmic reticulum aminopeptidase 2 (Homo sapiens, UniProt Q6P179); test: Inhibition of human recombinant ERAP2 expressed in baculovirus infected Sf9 cells using omniMMP fluorogenic substrate incubated for 5 to 10 mins by fluorescence spectrophotometry analysis
pIC50: −log10 of the molar value.
Exercise: state measured pIC50 for each of the molecules provided.

Using the record for "CCCC[C@H](N)C(=O)Nc1cc(C(=O)N[C@@H](Cc2c[nH]c3ccccc23)C(=O)OCc2ccccc2)ccn1" , report its pIC50.
< 5.00

Using the record for "CCCC[C@H](N)C(=O)Nc1cccc(C(=O)N[C@@H](Cc2c[nH]c3ccccc23)C(=O)OCc2ccccc2)c1" , report its pIC50.
< 5.00

Using the record for "N[C@@H](CCc1ccccc1)C(=O)NNc1ccc(C(=O)N[C@@H](Cc2c[nH]c3ccccc23)C(=O)OCc2ccccc2)cc1" , report its pIC50.
< 5.00

The origin of these recorded values is ChEMBL document CHEMBL4406907.
